- TARGET_OR_TEST_SYSTEM: Chloride anion exchanger (Mus musculus)
- Sequence (Q9WVC8 whole entry): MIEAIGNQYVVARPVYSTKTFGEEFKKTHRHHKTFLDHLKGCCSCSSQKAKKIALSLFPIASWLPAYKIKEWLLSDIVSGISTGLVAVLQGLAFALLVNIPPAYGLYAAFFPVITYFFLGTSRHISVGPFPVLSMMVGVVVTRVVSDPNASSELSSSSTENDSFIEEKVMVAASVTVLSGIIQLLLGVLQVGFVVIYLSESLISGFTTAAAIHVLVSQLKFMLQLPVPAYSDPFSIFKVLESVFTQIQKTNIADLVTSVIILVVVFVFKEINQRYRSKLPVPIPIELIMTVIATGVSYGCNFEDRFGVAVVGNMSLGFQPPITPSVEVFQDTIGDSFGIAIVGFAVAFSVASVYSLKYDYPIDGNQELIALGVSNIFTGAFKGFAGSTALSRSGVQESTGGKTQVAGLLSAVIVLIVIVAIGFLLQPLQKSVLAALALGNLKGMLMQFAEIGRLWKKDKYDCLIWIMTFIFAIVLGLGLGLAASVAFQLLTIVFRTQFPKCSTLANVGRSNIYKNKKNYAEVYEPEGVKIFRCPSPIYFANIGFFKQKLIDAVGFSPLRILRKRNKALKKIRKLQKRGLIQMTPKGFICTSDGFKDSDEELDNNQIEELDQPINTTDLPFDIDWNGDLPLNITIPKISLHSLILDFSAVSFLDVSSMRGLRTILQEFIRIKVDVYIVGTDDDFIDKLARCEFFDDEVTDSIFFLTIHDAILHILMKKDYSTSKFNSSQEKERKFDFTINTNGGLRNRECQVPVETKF
- TEST: Inhibition of mouse Slc26a3 transfected in rat FRT cells preincubated with forskolin, 8-Br-cGMP and PMA and measured by fluorescence assay
- Format: cell-based
- EXPERIMENTAL_CONDITIONS: read-out: IC50
I'd appreciate it if you could supply pIC50 values for the items below.
Quick note: pIC50 values are minus log10 of concentrations in mol/L.

Reported pIC50 ( Cc1cc(C)cc(COc2ccc3c(C)c(CC(=O)O)c(=O)oc3c2C)c1 ) = 6.27

Reported pIC50 ( Cc1cccc(COc2ccc3c(C)c(CC(=O)O)c(=O)oc3c2C)c1 ) = 6.32

Reported pIC50 ( COc1ccc(-n2ccnc2SCC(=O)Nc2ccc(Br)cc2)cc1 ) = 5.72

Reported pIC50 ( Cc1c(CC(=O)O)c(=O)oc2c(C)c(OCc3cccc(Cl)c3)ccc12 ) = 6.70

The origin of these recorded values is ChEMBL document CHEMBL5052835.
